Catalogue of compounds with associated melting point

compound | melting point
O=S(=O)(NCCBr)c1ccccc1 | 54 to 56 °C
O=C1C(Br)CCN1c1ccc(Cl)c(F)c1 (centres undefined) | 94 to 96 °C
COc1ccc(S(=O)(=O)NC2CCOCC2)cc1N | 164 to 166 °C
O=C(O)Cn1ccc2ccccc21 | 169 to 171 °C
Cc1cc(C)c(S(N)(=O)=O)cc1C(=O)O | 252 to 254 °C
O=C(O)C=Cc1ccc(OCc2ccccc2)cc1 | 141 to 143 °C
CC1(C)CN(CC(N)=NO)CCO1 | 75 to 77 °C
Cc1cc(O)cc(=O)n1C1CC1 | 264 to 266 °C
CCCCn1nc(C(=O)O)ccc1=O | 119 to 121 °C
O=C(O)c1cccc(S(=O)(=O)Nc2ccccc2Cl)c1 | 186 to 188 °C
CC(C)Nc1ncccc1C(=O)O | 169 to 171 °C
Cc1ccc(C(=O)Nc2ccccc2)cc1N | 151 to 153 °C
CC(C)(C#N)NS(C)(=O)=O | 61 to 63 °C
O=C(O)c1csc(-c2ccoc2)n1 | 166 to 168 °C

###

compound | melting point
Cc1sc2nc(S)n(C(C)C)c(=O)c2c1C | 270 to 272 °C
CCCc1nc(C(=O)O)nn1-c1ccccc1F | 137 to 139 °C
COc1cc2nc(C)sc2cc1OC | 70 to 72 °C
Nc1ccc(O)c(S(N)(=O)=O)c1 | 169 to 171 °C
NNc1ccc(S(=O)(=O)Nc2cccc(Cl)c2)cc1[N+](=O)[O-] | 195 to 197 °C
COc1cc(OC)cc(C(O)CN)c1 (configuration not stated) | 92 to 94 °C
c1ccc2oc(-c3nn[nH]n3)cc2c1 | 212 to 214 °C

###

Catalogue of molecules with associated melting point

molecule | melting point
Cc1nscc1C(=O)O | 219 to 221 °C
COc1ccc(C(=O)O)cc1OC(F)F | 179 to 181 °C
Cc1c(C(=O)O)cccc1S(N)(=O)=O | 218 to 220 °C
O=Cc1cc[nH]n1 | 139 to 141 °C
CCOc1ccc(Cl)cc1C(C)=O | 79 to 81 °C
NCCc1nc2ccccc2s1 | 47 to 49 °C
NNC(=O)Cn1cnc2ccccc21 | 108 to 110 °C
Cn1cc(Br)c([N+](=O)[O-])n1 | 157 to 159 °C
N#CCC(=O)c1ccc(F)c(F)c1 | 67 to 69 °C
NC(C(=O)O)(c1ccccc1F)C(F)(F)F (centres undefined) | 113 to 115 °C
CCOc1ccc(-c2nnc(N)o2)cc1 | 238 to 240 °C
C/C(=N/O)c1ccc2c(c1)CCO2 | 122 to 124 °C
CN1C(=O)N(CC(=O)O)C(=O)C12CCCCC2 | 220 to 222 °C
O=C(O)c1ccc(CN2C(=O)CCC2=O)cc1 | 229 to 231 °C

###

Catalogue of molecules with associated melting point
readout name: melting point

molecule | measured result
NNc1c(Cl)cc(F)cc1Cl | 109 to 111 °C
Nc1cc(F)c(F)cc1[N+](=O)[O-] | 107 to 108 °C
O=C(O)CCCc1nc(-c2ccc(Cl)cc2)no1 | 108 to 110 °C
CN(C)c1ccc(C(=N)N)c(F)c1 | 133 to 135 °C
O=C(Nc1nnc(-c2ccccn2)s1)OCC(F)(F)F | 246 to 248 °C
CCN(C(=O)OC(C)(C)C)C(C#N)c1cccnc1 (stereo not drawn) | 66 to 68 °C
COc1ccc(C)cc1C1(C)NC(=O)N(CC(=O)O)C1=O (stereo not drawn) | 188 to 190 °C
COc1ccc(CNC(=O)C2CCNCC2)cc1 | 118 to 120 °C
COc1ccc(-n2ccnc2S)cc1 | 175 to 177 °C
O=Cc1sc(N2CCCC2)nc1Cl | 119 to 121 °C
CC(C)(C)c1noc2ncc(C(=O)O)cc12 | 207 to 209 °C
NC(=O)c1cccc(OCCC(=O)O)c1 | 196 to 198 °C
CC1(C)C(=O)NC(=O)N1CC(N)=O | 154 to 156 °C

###

Catalogue of compounds with associated melting point

compound | melting point
Cc1ccc(-c2nc(C)c(C(=O)O)s2)o1 | 215 to 217 °C
Nc1ncc(Cc2cccc(C(=O)O)c2)s1 | 217 to 219 °C
CCOc1ccccc1-n1nnnc1SCC(=O)O | 145 to 147 °C
O=C1NC(=O)C2CN(Cc3ccccc3)CC12 (centres undefined) | 91 to 93 °C
COc1ccc(-c2nnc(S)n2N)c(OC)c1 | 200 to 202 °C
Nc1nc2cc(Cl)ccc2n1CCCn1ccnc1 | 229 to 231 °C
O=C(CCl)Nc1ccc(SC(F)F)cc1 | 55 to 57 °C
O=C1C2C3CC4C2C(=O)C2C1C3C42 (centres undefined) | 240 to 242 °C
Cc1ccc(NN)nn1 | 107 to 109 °C
O=C(O)c1ccnc(C2CCCC2)n1 | 129 to 131 °C
O=S1(=O)NC=Nc2ccccc21 | 222 to 224 °C
O=C(O)c1cc(Br)cc([N+](=O)[O-])c1Cl | 226 to 228 °C
Cn1ccnc1-c1cc(N)[nH]n1 | 167 to 169 °C
NCc1ccc(N2CCC(CO)CC2)cc1 | 138 to 140 °C
CC1(C)Cc2ccc(Cl)cc2C1O (centres undefined) | 94 to 96 °C
CC(C)c1ncncc1C(=O)O | 134 to 136 °C
NNc1ncnc2sc(-c3ccccc3)cc12 | 263 to 265 °C
O=C(Nc1ccccc1[N+](=O)[O-])N1CCCC1 | 99 to 101 °C
O=C(O)c1sc(C2CC2)nc1C(F)(F)F | 146 to 148 °C
O=C(O)CCc1ccc(Cl)s1 | 50 to 52 °C
NC1(C(=O)O)CCOCC1 | 268 to 270 °C
CC(C)(C)C1CCc2[nH]c(=O)sc2C1 (centres undefined) | 205 to 207 °C
CC(C)S(=O)(=O)Nc1ccccc1F | 52 to 54 °C
Nc1nc(Cc2ccccc2)ns1 | 133 to 135 °C
O=C(O)C(Br)C12CC3CC(CC(C3)C1)C2 (centres undefined) | 162 to 166 °C
O=C(O)CC(NC(=O)c1ccccc1)c1ccccc1 (centres undefined) | 197 to 199 °C
Nc1ccc(Cl)c(S(=O)(=O)Nc2ccc(Cl)cc2)c1 | 123 to 125 °C
Nc1nncc(-c2cccc(F)c2)n1 | 224 to 226 °C
Cc1cccc(-c2noc(S)n2)c1 | 119 to 121 °C

###

Catalogue of molecules with associated melting point

molecule | melting point
CNC(C)c1ccc(-n2cnc3ccccc32)cc1 (centres undefined) | 62 to 64 °C
O=C1CC(c2cccc(F)c2)CN1 (centres undefined) | 77 to 79 °C
Cc1sc2ncnc(N)c2c1C | 257 to 259 °C
CNc1ncc([N+](=O)[O-])cc1C#N | 181 to 183 °C
CCOC(=O)c1cc(-c2ccccc2)ccc1N | 59 to 61 °C
CC(C)CC(N)C(=O)N1CCNC(=O)C1 (centres undefined) | 162 to 164 °C
O=CC(C=O)SCc1ccccc1 | 128 to 130 °C
COC(=O)C(C#N)=Cc1cccc(F)c1 | 107 to 109 °C
CC1CN(C(CN)c2c(F)cccc2F)CC(C)O1 (centres undefined) | 59 to 61 °C
Nc1ccc(Cn2cnc3ccccc32)cc1 | 177 to 179 °C
CN1CCN(c2ccc(N)cn2)CC1 | 109 to 111 °C
COc1ccc(-c2nc(CO)no2)cc1 | 141 to 143 °C
NNC(=O)c1cnn(-c2ccccc2)c1 | 179 to 181 °C
CC(C)(C)C=CC(=O)O | 60 to 62 °C
COc1ccc(N2C(=O)CC(=O)NC2=S)cc1 | 241 to 243 °C
Nc1cc(-c2ccsc2)no1 | 89 to 91 °C
Cc1cn(-c2ccccc2)nc1N | 119 to 121 °C
Oc1cccc2[nH]ncc12 | 164 to 166 °C
Nc1cccc(-c2nccn2CC(=O)O)c1 | 249 to 251 °C
O=Cc1cccc(OCCCC(=O)O)c1 | 58 to 60 °C
CN(C)C(=O)c1ccc(C#N)cc1 | 93 to 95 °C
O=C1CC(C(F)(F)F)N(C(=O)CCl)c2ccccc2N1 (centres undefined) | 159 to 161 °C
NC(=O)c1c(NC(=O)CCl)sc2c1CCCC2 | 236 to 238 °C
CCOC(=O)COc1ccc(Cl)c2cccnc12 | 113 to 115 °C
Cc1ncc(C(=O)O)c(Br)c1Cl | 129 to 131 °C
O=C1CSC(N2CCCCC2)=N1 | 76 to 80 °C
CC(C)N(CCC(=O)O)C(=O)OC(C)(C)C | 65 to 67 °C
O=C(CCl)c1ccc[nH]1 | 114 to 116 °C
O=C1C=CC(=O)N1CCO | 59 to 61 °C

The values you see were collected from a melting point compilation (Tetko et al.).
